All values here come from paper PMC6736568.

assayProtocol: in vitro
testContext: human
observable: cytotoxicity at 41 h, 10 µM (%)
Give bare numbers, in %.

Take a look at these entries with their results.
- compound: "Cc1cc(O)c(C)c(O)c1C(=O)O [3-METHYLORSELLINIC ACID]"
  observable: "cytotoxicity at 41 h, 10 µM"
  quantitativeReadout: 3.6
- compound: "COC(=O)C[C@H]1C(C)(C)C(=O)[C@@H]2CC3=C4CC(=O)O[C@@H](c5ccoc5)[C@]4(C)CC[C@@H]3[C@@]1(C)C2=O [MEXICANOLIDE]"
  observable: "cytotoxicity at 41 h, 10 µM"
  quantitativeReadout: -12.3
- compound: "N[C@@H](C(=O)O)[C@@H](O)[C@H](O)[C@H](O)CO [GLUCOSAMINIC ACID]"
  observable: "cytotoxicity at 41 h, 10 µM"
  quantitativeReadout: 13.9
- compound: "O[C@H]1[C@H](O)[C@@H](O)[C@H](O)[C@@H](O)[C@H]1O [INOSITOL]"
  observable: "cytotoxicity at 41 h, 10 µM"
  quantitativeReadout: 5.5
- compound: "C[C@]12CC[C@@H]3c4ccc(O)cc4CC[C@H]3[C@@H]1C[C@@H](O)[C@@H]2O [ESTRIOL]"
  observable: "cytotoxicity at 41 h, 10 µM"
  quantitativeReadout: -8.4
- compound: "COc1c(-c2coc3cc4c(cc3c2=O)CC(O)C(C)(C)O4)ccc2c1C=CC(C)(C)O2 (stereo not shown) [MUNDULONE]"
  observable: "cytotoxicity at 41 h, 10 µM"
  quantitativeReadout: 14.4

Continue with the next compound.
// returns reported cytotoxicity at 41 h, 10 µM for input C[C@@H]1[C@H](O)[C@@H](C)/C=C/C=C/C=C/C=C/C=C/C=C/C=C/[C@H](O[C@@H]2O[C@H](C)[C@@H](O)[C@H](N)[C@@H]2O)C[C@@H]2O[C@](O)(C[C@@H](O)C[C@@H](O)[C@H](O)CC[C@@H](O)C[C@@H](O)CC(=O)O[C@H]1C)C[C@H](O)[C@H]2C(=O)O [AMPHOTERICIN B] 7.1
